Where do these numbers come from? They come from ChEMBL document CHEMBL5291721.

TARGET UNDER TEST: 5-hydroxytryptamine receptor 2B (Homo sapiens, UniProt P41595); note: assay procedure not described here
Sequence (P41595 whole entry): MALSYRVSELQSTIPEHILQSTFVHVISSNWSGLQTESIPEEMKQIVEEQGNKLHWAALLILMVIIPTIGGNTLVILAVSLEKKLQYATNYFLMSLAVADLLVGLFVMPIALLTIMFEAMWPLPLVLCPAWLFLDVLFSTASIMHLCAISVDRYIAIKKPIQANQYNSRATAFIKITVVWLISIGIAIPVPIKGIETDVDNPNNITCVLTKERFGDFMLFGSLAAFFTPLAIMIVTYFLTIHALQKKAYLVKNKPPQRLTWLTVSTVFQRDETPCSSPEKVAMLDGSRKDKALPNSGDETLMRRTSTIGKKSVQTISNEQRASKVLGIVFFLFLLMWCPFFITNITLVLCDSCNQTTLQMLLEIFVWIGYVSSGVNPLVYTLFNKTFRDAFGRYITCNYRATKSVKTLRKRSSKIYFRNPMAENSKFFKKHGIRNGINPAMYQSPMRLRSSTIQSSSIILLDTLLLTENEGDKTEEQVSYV
Format: functional, cell-based
Where a SMILES comes first, the peptide text is derived from it.
Listing of recorded AC50 by entry.

{"MOLECULE": "CC1=C(CC(=O)O)c2cc(F)ccc2/C1=C\\c1ccc([S+](C)[O-])cc1 (stereo not given)", "AC50": "> 10 µM"}
{"MOLECULE": "CN(C)CCOCC(=O)NC12CC3CC(CC(C3)C1)C2", "AC50": "> 30 µM"}
{"MOLECULE": "COc1ccc(-c2cc(=S)ss2)cc1", "AC50": "> 30 µM"}
{"MOLECULE": "CCOC(=O)C1=C(C)NC(C)=C(C(=O)OC)C1c1cccc(Cl)c1Cl (stereo not given)", "AC50": "> 10 µM"}
{"MOLECULE": "CO[C@@H]1[C@@H](OC(N)=O)[C@@H](O)[C@H](Oc2ccc3c(O)c(NC(=O)c4ccc(O)c(CC=C(C)C)c4)c(=O)oc3c2C)OC1(C)C", "AC50": "> 30 µM"}
{"MOLECULE": "CN(C)[C@@H]1C(O)=C(C(=O)NCN2CCCC2)C(=O)[C@@]2(O)C(O)=C3C(=O)c4c(O)cccc4[C@@](C)(O)[C@H]3C[C@@H]12", "AC50": "> 10 µM"}
{"MOLECULE": "CCOC(=O)[C@H](CCc1ccccc1)N[C@@H](C)C(=O)N1Cc2ccccc2C[C@H]1C(=O)O", "AC50": "> 10 µM"}
{"MOLECULE": "CO/N=C(\\C(=O)N[C@@H]1C(=O)N2C(C(=O)O)=C(CSc3nc(C)c(CC(=O)O)s3)CS[C@H]12)c1csc(N)n1", "AC50": "> 30 µM"}
{"MOLECULE": "CN1CCC(=C2c3ccccc3CC(=O)c3sccc32)CC1", "AC50": "0.09 µM"}
{"MOLECULE": "CNC1(C)C2CCC(C2)C1(C)C (stereo not given)", "AC50": "> 10 µM"}
{"MOLECULE": "Cn1cnc2c(F)c(Nc3ccc(Br)cc3F)c(C(=O)NOCCO)cc21", "AC50": "> 30 µM"}
{"MOLECULE": "CN1C2CCCC1CC(NC(=O)c1nn(C)c3ccccc13)C2 (stereo not given)", "AC50": "> 10 µM"}
{"MOLECULE": "Cc1ccc(S(=O)(=O)NC(=O)N[C@H]2[C@H]3CC[C@@](C)([C@H]2O)C3(C)C)cc1 [GLIBORNURIDE]", "AC50": "> 30 µM"}
{"MOLECULE": "CC(=O)OCC1=C(C(=O)O)N2C(=O)[C@@H](NC(=O)Cc3cccs3)[C@H]2SC1", "AC50": "> 30 µM"}
{"MOLECULE": "Cc1ccc(-c2ncc(Cl)cc2-c2ccc(S(C)(=O)=O)cc2)cn1", "AC50": "> 10 µM"}
{"MOLECULE": "CC(=O)[C@@]1(O)CC[C@H]2[C@@H]3C[C@H](C)C4=CC(=O)C=C[C@]4(C)[C@@]3(F)[C@@H](O)C[C@@]21C", "AC50": "> 10 µM"}
{"MOLECULE": "CC1CC(OC(=O)C(O)c2ccccc2)CC(C)(C)C1 (stereo not given) [CYCLANDELATE]", "AC50": "> 10 µM"}
{"MOLECULE": "CC(C)(Oc1ccc(Cl)cc1)C(=O)OCCOC(=O)c1cccnc1 [ETOFIBRATE]", "AC50": "> 30 µM"}
{"MOLECULE": "CCC(NC(C)C)C(O)c1ccc(O)c(O)c1 (stereo not given)", "AC50": "> 30 µM"}
{"MOLECULE": "CN(C)CCC(O)(c1ccccc1)c1ccccc1Cl (stereo not given)", "AC50": "> 10 µM"}
{"MOLECULE": "O=C(O)CCCC[C@@H]1SC[C@@H]2NC(=O)N[C@@H]21", "AC50": "> 10 µM"}
{"MOLECULE": "Clc1ccc(COC(Cn2ccnc2)c2ccc(Cl)cc2Cl)c(Cl)c1 (stereo not given)", "AC50": "> 10 µM"}
{"MOLECULE": "CC(=O)OCC1=C(C(=O)O)N2C(=O)[C@@H](NC(=O)CSc3ccncc3)[C@H]2SC1", "AC50": "> 10 µM"}
{"MOLECULE": "CC(C)CN(C[C@@H](O)[C@H](Cc1ccccc1)NC(=O)O[C@H]1CCOC1)S(=O)(=O)c1ccc(N)cc1", "AC50": "> 10 µM"}
{"MOLECULE": "CC[N+](CC)(CCNC(=O)C(=O)NCC[N+](CC)(CC)Cc1ccccc1Cl)Cc1ccccc1Cl", "AC50": "> 30 µM"}
{"MOLECULE": "CCC[C@@]1(CCc2ccccc2)CC(O)=C([C@H](CC)c2cccc(NS(=O)(=O)c3ccc(C(F)(F)F)cn3)c2)C(=O)O1", "AC50": "7.5 µM"}
{"MOLECULE": "CCNC(=O)CCC/C=C\\C[C@@H]1[C@@H](/C=C/[C@@H](O)CCc2ccccc2)[C@H](O)C[C@@H]1O", "AC50": "> 30 µM"}
{"MOLECULE": "CS(=O)(=O)NC(=O)CCC/C=C\\C[C@H]1C(=O)C[C@@H](O)[C@@H]1/C=C/[C@@H](O)COc1ccccc1", "AC50": "> 30 µM"}
{"MOLECULE": "NCCCNCCSP(=O)(O)O", "AC50": "> 30 µM"}
{"MOLECULE": "COc1cc(C(=O)NCc2ccc(OCCN(C)C)cc2)cc(OC)c1OC [TRIMETHOBENZAMIDE]", "AC50": "> 30 µM"}
{"MOLECULE": "CC(C)(C)NCC(O)COc1cccc2c1CC(O)C(O)C2 (stereo not given)", "AC50": "> 10 µM"}
{"MOLECULE": "CN(C)CCc1c[nH]c2ccc(CS(=O)(=O)N3CCCC3)cc12", "AC50": "> 30 µM"}
{"MOLECULE": "CCC1(C)CC(=O)NC1=O (stereo not given) [ETHOSUXIMIDE]", "AC50": "> 10 µM"}
{"MOLECULE": "O=C(O)[C@H]1/C(=C/CO)O[C@@H]2CC(=O)N21", "AC50": "> 30 µM"}
{"MOLECULE": "C[C@H](N)C(=O)N[C@@H](CCC(N)=O)C(=O)O [ALANYL GLUTAMINE] (H-Ala-Gln-OH)", "AC50": "> 30 µM"}
